assayed_target: Inosine-5'-monophosphate dehydrogenase (Cryptosporidium parvum, UniProt Q8T6T2)
Sequence (Q8T6T2 whole entry): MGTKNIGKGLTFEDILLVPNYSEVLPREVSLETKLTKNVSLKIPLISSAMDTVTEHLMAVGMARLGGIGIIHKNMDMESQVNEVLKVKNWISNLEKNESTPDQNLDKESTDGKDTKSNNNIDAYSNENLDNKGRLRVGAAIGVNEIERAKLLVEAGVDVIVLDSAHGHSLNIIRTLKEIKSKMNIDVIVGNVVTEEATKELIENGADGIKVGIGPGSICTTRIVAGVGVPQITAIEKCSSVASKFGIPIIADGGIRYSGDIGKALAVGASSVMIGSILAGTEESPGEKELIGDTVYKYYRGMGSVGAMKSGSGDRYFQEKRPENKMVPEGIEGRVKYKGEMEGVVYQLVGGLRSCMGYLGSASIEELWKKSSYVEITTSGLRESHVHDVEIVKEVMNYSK
assay_text: Inhibition of Cryptosporidium parvum N-terminal His6-tagged IMPDH-mediated NADH production expressed in Escherichia coli BL21(DE3) preincubated for 5 mins prior to substrate addition by fluorescence assay in presence of BSA
Field: IC50. Provide a value for each of the molecules that follow.
Give bare numbers, in nM.

- molecule: "C[C@H](Oc1cccc2ccccc12)C(=O)Nc1ccc2oc(-c3cncs3)nc2c1"
  units_label: "nM"
  IC50: 4

Give IC50 for each listed item.
1. CC(Oc1ccccc1)C(=O)Nc1ccc2oc(-c3ccncc3)nc2c1 (stereo not drawn)
2. C[C@H](Oc1cccc(C(F)(F)F)c1Cl)C(=O)Nc1ccc2oc(-c3ccncc3)nc2c1

## Result
1: 50; 2: 52

====

Would you kindly list IC50 for each of these molecules?
assayed_target: Inosine-5'-monophosphate dehydrogenase (Cryptosporidium parvum, UniProt Q8T6T2)
assay_text: Inhibition of Cryptosporidium parvum N-terminal His6-tagged IMPDH-mediated NADH production expressed in Escherichia coli BL21(DE3) preincubated for 5 mins prior to substrate addition by fluorescence assay in presence of BSA
Answers are plain numbers, in nM.

Reference set (5 entries):
- molecule: "CC(Oc1ccccc1Cl)C(=O)Nc1ccc2oc(-c3ccncc3)nc2c1 (centres undefined)"
  assayed_target: "Inosine-5'-monophosphate dehydrogenase (Cryptosporidium parvum, UniProt Q8T6T2)"
  IC50 [nM]: 50
- molecule: "COc1cccc(O[C@@H](C)C(=O)Nc2ccc3oc(-c4ccncc4)nc3c2)c1OC"
  assayed_target: "Inosine-5'-monophosphate dehydrogenase (Cryptosporidium parvum, UniProt Q8T6T2)"
  IC50 [nM]: 60
- molecule: "CC(Oc1cccc(Cl)c1Cl)C(=O)Nc1ccc2oc(-c3ccncc3)nc2c1 (centres undefined)"
  assayed_target: "Inosine-5'-monophosphate dehydrogenase (Cryptosporidium parvum, UniProt Q8T6T2)"
  IC50 [nM]: 11
- molecule: "COc1ccc(OC(C)C(=O)Nc2ccc3oc(-c4ccncc4)nc3c2)cc1 (centres undefined)"
  assayed_target: "Inosine-5'-monophosphate dehydrogenase (Cryptosporidium parvum, UniProt Q8T6T2)"
  IC50 [nM]: 34
- molecule: "CC(Oc1ccc(Cl)c2ccccc12)C(=O)Nc1ccc2oc(-c3cncs3)nc2c1 (centres undefined)"
  assayed_target: "Inosine-5'-monophosphate dehydrogenase (Cryptosporidium parvum, UniProt Q8T6T2)"
  IC50 [nM]: 70

Provide IC50 for all items below, preserving their order.
1. C[C@H](Oc1cccc(Cl)c1Cl)C(=O)Nc1ccc2oc(-c3ccncc3)nc2c1
2. CC(Oc1ccc(Cl)cc1Cl)C(=O)Nc1ccc2oc(-c3cccnc3)nc2c1 (centres undefined)
3. C[C@H](Oc1cccc(Cl)c1Cl)C(=O)Nc1ccc2oc(-c3nccs3)nc2c1
4. C[C@H](Oc1cccc2ccccc12)C(=O)Nc1ccc2oc(-c3ccc[nH]3)nc2c1

## Result
3.5
600
30
50
